system: 786-0 renal; assay: NCI-60 one-dose screen, 48 h (100 = growth as untreated, 0 = no growth, -100 = all killed); details: 10 µM unless noted
Compounds without any hit were thinned out: in the full panel of roughly 83,000, 20% have a hit.
Would you mind sorting the entries by growth according to these classes? class 0 (below 30%), class 1 (30% to below 90%), class 2 (90% or more)

In plain terms, what class is S=C(NCCc1ccccc1)Nc1ccc(OCc2nc3ccc(Cl)cc3[nH]2)cc1 ?
class 0

Band assignment needed for CNc1nc2ccccc2n2c(-c3ccc(O)c(O)c3)cnc12 please.
class 0

Bin this entry: Cc1ccc(O)cc1Nc1nc(SCCN2CCOCC2)nc2c1cnn2CC(Cl)c1ccc(Br)cc1 (stereo not given)
class 0

Hello team, could you let me know which band the following compound falls into: Cc1ccc(C(=O)Nc2cc(-c3ccncc3)cc(C(F)(F)F)c2)cc1C#Cc1cnc2cccnn12
class 1

State the class of the compound shown: O=C(O)CC1S/C(=N/N=C/c2nc3ccccc3s2)NC1=O (stereo not given)
class 1

Bin this entry: O=S(=O)(c1nc(-c2ccc(Br)cc2)oc1-c1ccc(Cl)cc1)N1CCCC(O)C1 (stereo not given)
class 1

Consider N#CC1=C(c2cccs2)Nc2c(c(-c3ccccc3)nn2-c2ccccc2)C12C(=O)Nc1ccc(Cl)cc12 (stereo not given) . To which growth class does it belong?
class 0

Textbook exercise: identify the category of the compound given here, CN(C)CCCNC(=S)Nc1ccc(/C=C/c2ccc(Cl)cc2)cc1 , according to its measured value.
class 0

State the class of the compound shown: C=CC[n+]1cccc2c3ccccc3ccc21
class 1

Category of COC(=O)c1cc(C(=O)C(C)(C)C)n2c3ccccc3c3ccccc3c12 , please.
class 2

Using the reported growth, which band applies to CC[C@]12C=CCN3CC[C@]4(C(=C(C(=O)OC)C1)Nc1cc(OC)c([C@@H]5[C@H]6O[C@H]6[C@@]6(CC)CC(C(=O)OC)=C7Nc8cc(OC)ccc8[C@@]78CCN5[C@@H]68)cc14)[C@@H]32 ?
class 1

The entry to classify is COC(=O)c1ccc(-c2c(-c3ccccc3)c(F)c3oc(C(=O)OC)c(N)c3c2-c2ccccc2)cc1 ; which class holds it?
class 2

Consider S=C(Nc1ccccc1)Nc1ccc(OCc2nc3ccc(Cl)cc3[nH]2)cc1 . To which growth class does it belong?
class 2

Category of COc1cc(CNC(=O)[C@]23CCC(C)(C)CC2C2=CCC4[C@@]5(C)CCC(OC(C)=O)C(C)(C)C5CC[C@@]4(C)[C@]2(C)CC3)ccc1OCc1cn(-c2ccc(Cl)cc2Cl)nn1 (stereo not given in full) :
class 2

Kindly identify the class of COC(=O)c1c(C(=O)OC)c2ccc3c4ccccc4ccc3n2c1C(=O)C(C)Br (stereo not given) .
class 1

Hey, which category is CC1=C(C(=O)OC(C)C)C(c2ccc(O)cc2)NC(=O)N1 (stereo not given) in, do you know?
class 2

Hi, small favor: classify CN1C(=O)/C(=C/c2ccco2)S/C1=N/c1nccs1 by its growth when you get a moment.
class 2

Band of COc1ccc2[nH]c(O)c(N=Nc3nc(-c4ccc(Br)cc4)cs3)c2c1 ?
class 0

For the record Nc1nn2c(-c3cc4cc(Br)ccc4oc3=O)ccnc2c1N=Nc1ccccc1 , report the class its growth corresponds to.
class 0
